test-name: Screening of protected amino acid derivatives as solubilizers and inhibitor of crystallization for JP4-039
Type: physicochemical
applied-conditions: molar ratio 20
measurement-label: Solubility status of JP4-039 with amino acid derivative

Examples with their reported Solubility status of JP4-039 with amino acid derivative follow.
compound	assay-result
O=C(O)CCNC(=O)OCc1ccccc1 [Cbz-β-Ala-OH]	I
CC(=O)N[C@@H](CCCCNC(=O)OCc1ccccc1)C(=O)O [Ace-(Cbz)-Lys-OH]	I
CC(C)(C)OC(=O)N[C@@H](CCCCNC(=O)OCc1ccccc1)C(=O)O [tBoc-(Cbz)-Lys-OH]	I
CC(C)(C)OC(=O)NCCCC[C@H](NC(=O)OCC1c2ccccc2-c2ccccc21)C(=O)O [Fmoc-(tBoc)-Lys-OH, α-Fmoc-ε-tBoc-lysine]	S
CC(=O)NCCCC[C@H](NC(=O)OCc1ccccc1)C(=O)O [CBz-(Ace)-Lys-OH]	I

Consider the compound O=C(NCCCC[C@H](NC(=O)OCc1ccccc1)C(=O)O)OCc1ccccc1 [Di-(Cbz)-Lys-OH] and give its measured Solubility status of JP4-039 with amino acid derivative.
S

Another: CC(C)(C)OC(=O)NCCCC[C@H](NC(=O)OCc1ccccc1)C(=O)O [Cbz-(tBoc)-Lys-OH]
I

* * *

test-name: Screening of protected amino acid derivatives as solubilizers and inhibitor of crystallization for JP4-039
Assay type: physicochemical
applied-conditions: molar ratio 30
measurement-label: Solubility status of JP4-039 with amino acid derivative

See these solved cases before continuing.
compound	assay-result
CC(=O)N[C@@H](CCCCNC(=O)OCc1ccccc1)C(=O)O [Ace-(Cbz)-Lys-OH]	I
O=C(NCCCC[C@H](NC(=O)OCc1ccccc1)C(=O)O)OCc1ccccc1 [Di-(Cbz)-Lys-OH]	S
CC(=O)NCCCC[C@H](NC(=O)OCc1ccccc1)C(=O)O [CBz-(Ace)-Lys-OH]	I
O=C(O)CCNC(=O)OCc1ccccc1 [Cbz-β-Ala-OH]	I
CC(C)(C)OC(=O)NCCCC[C@H](NC(=O)OCC1c2ccccc2-c2ccccc21)C(=O)O [Fmoc-(tBoc)-Lys-OH, α-Fmoc-ε-tBoc-lysine]	S

// returns reported Solubility status of JP4-039 with amino acid derivative for input CC(C)(C)OC(=O)NCCCC[C@H](NC(=O)OCc1ccccc1)C(=O)O [Cbz-(tBoc)-Lys-OH]
I

Try this compound too: CC(C)(C)OC(=O)N[C@@H](CCCCNC(=O)OCc1ccccc1)C(=O)O [tBoc-(Cbz)-Lys-OH]
I

* * *

test-name: physchem
measurement-label: Drug:carrier mole ratio

See these solved cases before continuing.
compound	measurement-label	assay-result
C=CC[C@@H]1/C=C(\C)C[C@H](C)C[C@H](OC)[C@H]2O[C@@](O)(C(=O)C(=O)N3CCCC[C@H]3C(=O)O[C@H](/C(C)=C/[C@@H]3CC[C@@H](O)[C@H](OC)C3)[C@H](C)[C@@H](O)CC1=O)[C@H](C)C[C@@H]2OC [FK506, tacrolimus]	Drug:carrier mole ratio	1:1 to 1:1.5
O=C([O-])c1c(Cl)c(Cl)c(Cl)c(Cl)c1-c1c2cc(I)c(=O)c(I)c-2oc2c(I)c([O-])c(I)cc12.[Na+].[Na+] [Rose Bengal]	Drug:carrier mole ratio	2.5:1 to 2:1^
C=CC1=C(C)c2cc3[nH]c(cc4nc(cc5[nH]c(cc1n2)c(C)c5CCC(=O)O)C(CCC(=O)O)=C4C)c(C)c3C=C [protoporphyrin IX]	Drug:carrier mole ratio	1:6 to 1:10

Given the entry CC(C)c1onc(-c2c(Cl)cccc2Cl)c1COc1ccc(/C=C/c2cccc(C(=O)O)c2)c(Cl)c1 [GW4064] , report its measured Drug:carrier mole ratio.
2:1 to 1:1

Origin of measurements: patent US20190038556A1
